Tested on: SK-MEL-2
Test: NCI tumour cell line growth inhibition, 48 h
Calls of active or inactive are those of the source. Rule as the data show it: active = GI50 up to about 1.1 µM and inactive = higher. Positions of bridges follow the written chain, without caps; N, C: chain ends. Residues, ends and D or L forms follow the SMILES beside them.
Tick one outcome: yes = active, no = inactive

>>> assigned_label("COC(=O)C1CCC(=O)NCCCCC(NC(=O)C(N)CC(=O)O)C(=O)N1 (stereo not drawn) (H-Asp-Lys-Glu-OMe; lactam 2-3; configuration not given here)")
"no"
>>> assigned_label("CNC(=O)OCc1c2ccncc2c(C)c2c1[nH]c1ccc(OC)cc12")
"yes"
>>> assigned_label("C/C1=C\\[C@H](C)C[C@H](C)OC(=O)C[C@H](c2ccc(O)cc2)NC(=O)[C@H](Cc2ccc(O)c(I)c2)N(C)C(=O)[C@H](C)NC(=O)[C@@H](C)C1")
"yes"
>>> assigned_label("CCN(CC)Cc1cc(Nc2c3ccccc3nc3c2[nH]c2ccccc23)cc(CN(CC)CC)c1O")
"no"
>>> assigned_label("O=C(O)Cc1ccc(Nc2nc3cc(C(F)(F)F)ccc3nc2C(=O)O)cc1")
"no"

What outcome does the record of this test show for O=C(CNc1ccccc1C(=O)O)Nn1cnc2ccc(S(=O)(=O)Nc3ccccc3C(=O)O)cc2c1=O ? no

What outcome does the record of this test show for Cc1cc(C)nc(NS(=O)(=O)c2ccc(Nc3nncc(=O)n3N)cc2)n1 ? no

* * *

Test system: SW-620
Assay: NCI tumour cell line growth inhibition, 48 h
Active and inactive are the calls of the source. Cut-off read from the data, not from the text of the source: active = GI50 up to about 1.1 µM and inactive = higher.
Tick one outcome: active, inactive

What outcome does the record of this test show for COc1cc([C@@H]2c3cc4c(cc3[C@@H](NC(=O)NO)[C@H]3COC(=O)[C@H]23)OCO4)cc(OC)c1O ? inactive

What outcome does the record of this test show for CSc1nc(C)cc(Nc2ccc(O)c(CN3CCCCC3)c2)n1 ? inactive

What outcome does the record of this test show for CCN(CC)c1nc(N(C)C)c2cc(OC)ccc2n1 ? inactive

What outcome does the record of this test show for O=C1/C(=C\c2ccc(O)cc2)CCC/C1=C/c1ccc(Cl)c(Cl)c1 ? inactive

What outcome does the record of this test show for CS(=O)(=O)O.[Ag] ? inactive

What outcome does the record of this test show for OCCN(CCO)CCn1cnc2c(NCc3ccccc3)ncnc21 ? inactive

What outcome does the record of this test show for COc1cc2nc3n(c(=O)c2cc1OC)-c1ccc([N+](=O)[O-])cc1C3=O ? inactive

What outcome does the record of this test show for COC(=O)C1C(O)C(C)C(=O)C(C)/C=C\C=C(C)C(=O)Nc2c(C)c(OC(C)=O)c3c(c2O)C(=O)C(C)=C2OCOC(=C23)C(C)=CC(C)(O)C(O)C(C)C1O (stereo unspecified) ? inactive

What outcome does the record of this test show for O=C(/C=C/c1ccccc1)/C=C/c1ccccc1 ? inactive

What outcome does the record of this test show for CNC1(C(=O)O)CC1 ? inactive

What outcome does the record of this test show for C=C(C(=O)OC1C(CO)OC(OCC2CC[C@@H]3C[C@]4(OC(=O)C3=C)C(C)=CC(=O)C24)C(O)C1O)[C@@H]1CCC(CO)C2C(=O)C=C(C)[C@@]2(O)C1 (stereo partly specified) ? active

* * *

Test system: A549
Test: NCI tumour cell line growth inhibition, 48 h
Calls of active or inactive are those of the source. Rule as the data show it: active = GI50 up to about 1.1 µM and inactive = higher.
Tick one outcome: active, inactive

Reference set, count: 3
>>> assigned_label("CC(C)c1[nH]nc(C(N)=O)c1/N=N/N(C)C")
"inactive"
>>> assigned_label("C/C1=C\\[C@H](C)C[C@H](C)OC(=O)[C@H](C)NC(=O)[C@@H](Cc2ccc(O)c(Br)c2)N(C)C(=O)[C@H](C)NC(=O)[C@@H](C)C1")
"active"
>>> assigned_label("CC(=O)[O-].[O-]c1c(Cl)cc(Cl)cc1/C=N/Nc1ccccn1.[Zn+2]")
"inactive"

What outcome does the record of this test show for CCOc1ccccc1NC(=O)C(=O)c1c(O)c2ccc(O)cc2oc1=O ? inactive

What outcome does the record of this test show for CCOC(=O)C1=C(NC)OC/C1=N\NC(=O)c1ccccc1O ? inactive

What outcome does the record of this test show for CN1C(OCc2ccccc2)c2c(ccc3c2OCO3)C2C=Cc3cc4c(cc3C21)OCO4 (stereo not drawn) ? inactive

What outcome does the record of this test show for COc1ccc(OC(=O)CC2Cc3cc(OC)c(OC)c(OC)c3-c3ccc(SC)c(=O)cc32)cc1 (stereo not drawn) ? active

What outcome does the record of this test show for COC(=O)CC1C2(C)C3=C(C)C(c4ccoc4)CC3OC2C2OC(=O)C3(C)C=CC(=O)C1(C)C23 (stereo not drawn) ? inactive

What outcome does the record of this test show for CN(C)/N=C(/c1nc2ccc([N+](=O)[O-])cc2nc1O)C(O)c1ccco1 (stereo not drawn) ? inactive

* * *

Tested on: LOX IMVI
Assay: NCI tumour cell line growth inhibition, 48 h
Active and inactive are the calls of the source. Rule as the data show it: active = GI50 up to about 1.1 µM and inactive = higher.
Tick one outcome: active, inactive

>>> assigned_label("CCN1C(=O)C(=CN)C(=O)N(CC)C1=O")
"inactive"

What outcome does the record of this test show for C=CC1(C)CCC2C(=CCC3C(C)(COC4OC(C(=O)O)C(O)C(O)C4O)C(O)CCC23C)C1.C=CC1(C)CCC2C(=CCC3C2(C)CC(O)C(O)C3(C)COC2OC(C(=O)O)C(O)C(O)C2O)C1 (stereo unspecified) ? inactive

What outcome does the record of this test show for CCCCC(=O)OCC(=O)[C@]1(O)Cc2c(O)c3c(c(O)c2[C@@H](OC2CC(NC(=O)C(F)(F)F)C(O)C(C)O2)C1)C(=O)c1c(OC)cccc1C3=O (stereo partly specified) ? active

What outcome does the record of this test show for CC1CN(c2ccc(Cl)cc2)CC(C)OC(=O)O1 (stereo unspecified) ? inactive

What outcome does the record of this test show for COc1cc2c3c(c1OC)/C(=N/OS(=O)(=O)c1ccc(C)cc1)CC3N(S(=O)(=O)c1ccc(C)cc1)CC2 (stereo unspecified) ? inactive

What outcome does the record of this test show for COc1ccc2c(c1)N=C1CSC(c3cccc(Br)c3)N1C2 (stereo unspecified) ? inactive

* * *

Tested on: RXF 393
Test: NCI tumour cell line growth inhibition, 48 h
Calls of active or inactive are those of the source. Rule as the data show it: active = GI50 up to about 1.1 µM and inactive = higher.
Tick one outcome: True for active, False for inactive

What outcome does the record of this test show for O=C(N/N=C\c1ccc([N+](=O)[O-])cc1)Nc1ccc2ccccc2c1 ? False

What outcome does the record of this test show for Cc1ccnc2sc3ccccc3c(=O)c12 ? False

What outcome does the record of this test show for COC(=O)C1=C(O)C(C(=O)OC)[C@]2(O)[C@H](C(=O)OC)[C@H]1C[C@@H](c1ccc(O)cc1)[C@H]2C(=O)OC (some centres undefined) ? False

What outcome does the record of this test show for COc1ccc(C2S/C(=C\c3ccc(OC)cc3OC)C(=O)N2NC(=O)Cc2ccccc2)cc1 (centres undefined) ? False

What outcome does the record of this test show for COC(=O)CCC(C)[C@H]1CCC2C3C(C[C@H](OC(C)=O)[C@@]21C)[C@@]1(C)CCC2(C[C@H]1C[C@H]3OC(C)=O)OOC1(CCCCC1)OO2 (some centres undefined) ? False

What outcome does the record of this test show for Cc1nc(-c2ccccc2)c(C)n2c1nc1ccccc12 ? False

What outcome does the record of this test show for C/C=C\C(CC(=O)O)CN1CCC2=C(C1)C(S(=O)(=O)C(F)(F)F)c1ccccc12 (centres undefined) ? False

What outcome does the record of this test show for CC(=O)[C@H]1CC[C@H]2[C@@H]3CCC4=CC(=O)CC[C@]4(C)[C@H]3CC[C@]12C [PROGESTERONE] ? False

What outcome does the record of this test show for COc1ccc(C[C@H](N)C(=O)N2C[C@H](CO)C[C@H](n3ccc(=O)[nH]c3=O)C2)cc1 ? False

What outcome does the record of this test show for C=CCN(Cc1ccncc1)C(=O)C(O)(c1ccccc1)c1ccccc1 ? False

What outcome does the record of this test show for O=C(O)C1CCCCN1c1ccccc1[N+](=O)[O-] (centres undefined) ? False

What outcome does the record of this test show for OCCN(CCO)CCn1cnc2c(NCc3ccccc3)ncnc21 ? False

What outcome does the record of this test show for CC(O)c1cc2c(s1)C(=O)c1sccc1C2=O (centres undefined) ? True

What outcome does the record of this test show for COc1ccc2c(CCN)c(C(=O)O)[nH]c2c1 ? False

What outcome does the record of this test show for NC(=O)C1CCCNC1 (centres undefined) ? False

What outcome does the record of this test show for CN(C)CCCN1C(=S)N(CCCN(C)C)c2c3ccccc3nc3c([N+](=O)[O-])ccc1c23 ? False

What outcome does the record of this test show for CC(=O)/C=C1\Nc2ccc([N+](=O)[O-])cc2N\C1=C/C(C)=O ? False

What outcome does the record of this test show for O=C(/C=C/c1ccccc1)/C=C/c1ccccc1 ? False

What outcome does the record of this test show for O/N=C(\CC(O)(C(F)(F)F)C(F)(F)F)c1cccc(Cl)c1 ? False

What outcome does the record of this test show for CCOC(=O)Cn1nnc2cc(Nc3nc4ccccc4nc3C(=O)OCC)ccc21 ? False

What outcome does the record of this test show for CCCCC(=O)OCC(=O)[C@]1(O)Cc2c(O)c3c(c(O)c2[C@@H](OC2CC(NC(=O)C(F)(F)F)C(O)C(C)O2)C1)C(=O)c1c(OC)cccc1C3=O (some centres undefined) ? True

What outcome does the record of this test show for Nc1ccc(C(=O)Nc2ccccc2N)cc1 [DINALINE] ? False

What outcome does the record of this test show for Cc1cccc2c(N)c3cccc(C(=O)NCC[N+](C)(C)Cc4c([N+](=O)[O-])ncn4C)c3nc12 ? False

What outcome does the record of this test show for O=C(/C=C/c1ccccc1)OCC1=C[C@@H](O)[C@@H]2C=CO[C@@H](OC3OC(CO)C(O)C(O)C3O)[C@H]12 (some centres undefined) ? False
